- assay target: system Xc^− (Homo sapiens)
- Sequence (Q9UPY5 whole entry): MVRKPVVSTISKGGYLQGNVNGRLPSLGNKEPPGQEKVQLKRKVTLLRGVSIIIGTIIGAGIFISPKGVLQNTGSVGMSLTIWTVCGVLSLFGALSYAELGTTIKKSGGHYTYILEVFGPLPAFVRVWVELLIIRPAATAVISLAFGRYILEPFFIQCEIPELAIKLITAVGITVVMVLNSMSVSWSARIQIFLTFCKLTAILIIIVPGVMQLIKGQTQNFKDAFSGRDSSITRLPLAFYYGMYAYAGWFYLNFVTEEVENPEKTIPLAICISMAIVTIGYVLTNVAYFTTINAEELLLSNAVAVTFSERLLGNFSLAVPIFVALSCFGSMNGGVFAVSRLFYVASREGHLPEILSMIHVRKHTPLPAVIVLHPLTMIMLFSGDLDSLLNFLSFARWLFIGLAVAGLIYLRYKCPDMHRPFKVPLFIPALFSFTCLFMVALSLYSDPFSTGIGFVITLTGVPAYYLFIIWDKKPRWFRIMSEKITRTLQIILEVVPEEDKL
- Sequence (P08195 102-630 partner): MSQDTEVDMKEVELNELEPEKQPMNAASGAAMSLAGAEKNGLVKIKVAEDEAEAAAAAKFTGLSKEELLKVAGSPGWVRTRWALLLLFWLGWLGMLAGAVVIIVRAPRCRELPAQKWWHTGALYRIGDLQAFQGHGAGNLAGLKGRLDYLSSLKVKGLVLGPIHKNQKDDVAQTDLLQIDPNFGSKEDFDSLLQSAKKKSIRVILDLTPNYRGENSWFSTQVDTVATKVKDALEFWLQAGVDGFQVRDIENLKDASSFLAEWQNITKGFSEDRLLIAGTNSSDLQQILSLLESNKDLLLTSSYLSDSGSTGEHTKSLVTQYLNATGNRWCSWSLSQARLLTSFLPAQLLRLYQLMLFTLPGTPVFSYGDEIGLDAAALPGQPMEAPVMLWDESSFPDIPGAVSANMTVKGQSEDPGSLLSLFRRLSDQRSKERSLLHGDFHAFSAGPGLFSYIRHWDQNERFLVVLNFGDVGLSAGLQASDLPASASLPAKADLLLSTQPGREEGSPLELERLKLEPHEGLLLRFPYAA
- experiment description: Cystine-induced glutamate release assay
- Assay type: cell-based
- Parameters: endogenous in cells; host or cells: H4 cells
- measurement context: H4 cells, sodium-free HEPES buffer, 50 μM L-Cystine, 2 hours, Amplex Red glutamate readout; read-out: pIC50 Cystine-induced glutamate release assay (converted)
reported endpoint: IC50

## Task Lab note: need IC50 with system Xc^− (Homo sapiens) for entry Cc1cc2c(c(F)n1)-c1cccnc1[C@@H](C)C(=O)N2CC(=O)Nc1ccc(C(C)C)c(F)c1 , please look it up.
## Result 15.8 to 39.8 nM

## Task Lab note: need IC50 with system Xc^− (Homo sapiens) for entry O=C(CN1C(=O)Cc2ccccc2-c2cnccc21)Nc1ccc(C(F)(F)F)cc1 , please look it up.
## Result 100 to 501 nM

## Task Lab note: need IC50 with system Xc^− (Homo sapiens) for entry CC1C(=O)N(CC(=O)Nc2ccc(C(F)F)cc2)c2cc(C#N)cc(Cl)c2-c2ccnn21 (centres unmarked) , please look it up.
## Result 15.8 to 39.8 nM

## Task Lab note: need IC50 with system Xc^− (Homo sapiens) for entry Cc1cc2c(c(F)n1)-c1cccnc1C(C)C(=O)N2CC(=O)Nc1ccc(Cl)c(F)c1 (centres unmarked) , please look it up.
## Result 15.8 to 39.8 nM

## Task Lab note: need IC50 with system Xc^− (Homo sapiens) for entry COc1ccc2c(c1)-c1c(cc(C)nc1Cl)N(CC(=O)Nc1ccc(C(F)(F)F)cc1)C(=O)C2C (centres unmarked) , please look it up.
## Result 100 to 501 nM

## Task Lab note: need IC50 with system Xc^− (Homo sapiens) for entry O=C(CN1C(=O)Cc2cccnc2-c2cnc(Cl)cc21)Nc1ccc(Br)c(Cl)c1 , please look it up.
## Result 100 to 501 nM

## Task Lab note: need IC50 with system Xc^− (Homo sapiens) for entry Cc1cc2c(c(Cl)n1)-c1cccnc1C(C)C(=O)N2CC(=O)Nc1ccc(Cl)c(F)c1 (single isomer, unassigned) , please look it up.
## Result < 15.8 nM

## Task Lab note: need IC50 with system Xc^− (Homo sapiens) for entry COc1cc2c(cn1)-c1cc(F)cnc1C(C)C(=O)N2CC(=O)Nc1ccc(Cl)c(F)c1 (single isomer, unassigned) , please look it up.
## Result 15.8 to 39.8 nM

## Task Lab note: need IC50 with system Xc^− (Homo sapiens) for entry CO[C@H]1C(=O)N(CC(=O)Nc2ccc(C(F)(F)F)cc2)c2cc(C)nc(Cl)c2-c2ccccc21 (single isomer, unassigned) , please look it up.
## Result 15.8 to 39.8 nM

## Task Lab note: need IC50 with system Xc^− (Homo sapiens) for entry Cc1cc2c(c(F)n1)-c1cccnc1[C@@H](C)C(=O)N2CC(=O)Nc1ccc(C2CC2(F)F)cc1 (single isomer, unassigned) , please look it up.
## Result 39.8 to 100 nM

## Task Lab note: need IC50 with system Xc^− (Homo sapiens) for entry Cc1cc2c(c(F)n1)-c1ccc(F)cc1C(C)C(=O)N2CC(=O)Nc1ccc(Cl)c(F)c1 (centres unmarked) , please look it up.
## Result 15.8 to 39.8 nM

## Task Lab note: need IC50 with system Xc^− (Homo sapiens) for entry CC1C(=O)N(CC(=O)Nc2ccc(Cl)c(F)c2)c2cc(C(F)F)ncc2-c2cc(F)cnc21 (single isomer, unassigned) , please look it up.
## Result 15.8 to 39.8 nM

## Task Lab note: need IC50 with system Xc^− (Homo sapiens) for entry Cc1cc2c(c(F)n1)-c1cccnc1[C@@H](C)C(=O)N2CC(=O)Nc1ccc(F)cc1 , please look it up.
## Result 39.8 to 100 nM

## Task Lab note: need IC50 with system Xc^− (Homo sapiens) for entry COc1nc(C)cc2c1-c1cccnc1CC(=O)N2CC(=O)Nc1ccc(C(F)(F)F)nc1 , please look it up.
## Result 100 to 501 nM

## Task Lab note: need IC50 with system Xc^− (Homo sapiens) for entry CC1C(=O)N(CC(=O)Nc2ccc(C(F)F)cc2)c2cc(C#N)ccc2-c2cc(F)cnc21 (single isomer, unassigned) , please look it up.
## Result < 15.8 nM

## Task Lab note: need IC50 with system Xc^− (Homo sapiens) for entry Cc1cc2c(c(F)n1)-c1ccc(C)nc1C(C)C(=O)N2CC(=O)Nc1ccc(C(F)(F)F)cc1 (centres unmarked) , please look it up.
## Result 39.8 to 100 nM

## Task Lab note: need IC50 with system Xc^− (Homo sapiens) for entry O=C(CN1C(=O)Cc2ncccc2-c2c1cc(F)nc2F)Nc1ccc(C(F)(F)F)cc1 , please look it up.
## Result 39.8 to 100 nM

## Task Lab note: need IC50 with system Xc^− (Homo sapiens) for entry COCC1C(=O)N(CC(=O)Nc2ccc(C(F)(F)F)cc2)c2cc(C)nc(Cl)c2-c2ccccc21 (centres unmarked) , please look it up.
## Result 100 to 501 nM

## Task Lab note: need IC50 with system Xc^− (Homo sapiens) for entry O=C(CN1C(=O)Cc2ncccc2-c2c1cc(N1CC3(C1)CC3(F)F)nc2F)Nc1ccc(C(F)F)cc1 , please look it up.
## Result 15.8 to 39.8 nM

## Task Lab note: need IC50 with system Xc^− (Homo sapiens) for entry CC1C(=O)N(CC(=O)Nc2ccc(C(F)F)cc2)c2cc(N3CC(F)(F)C3)nc(Cl)c2-c2cccnc21 (centres unmarked) , please look it up.
## Result < 15.8 nM
